# Test system: Streptococcus mutans PCM 2502
# PROTOCOL DETAILS: Broth microdilution MIC
# Type: cell-based
# RECORDED CONDITIONS: Streptococcus mutans, PCM2502, NA means inactive, read-out: Minimum inhibitory concentration (MIC), S. mutans
MEASURED PROPERTY: MIC (µg/mL)

Below, each entry is followed by its recorded MIC result.
O=C(NNC(=S)Nc1ccc(Cl)cc1Cl)c1ccccn1
31.2
O=C(NNC(=S)Nc1ccc(Cl)cc1Cl)c1cccnc1
500
[H]/N=C(\N/C(=N/[H])NCCCCCCNC(=N)NC(=N)Nc1ccc(Cl)cc1)Nc1ccc(Cl)cc1 [CLX, chlorhexidine digluconate, reference compound]
0.488
O=C(NNC(=S)Nc1ccccc1Cl)c1ccccn1
250
CSc1ccc(NC(=S)NNC(=O)c2cccnc2)cc1
250
O=C(NNC(=S)Nc1ccccc1F)c1ccccn1
250

I. O=C(NNC(=S)Nc1ccc(Cl)cc1Cl)c1ccncc1
II. CSc1ccc(NC(=S)NNC(=O)c2ccccn2)cc1
III. CCOc1ccc2nc3cc(N)ccc3c(N)c2c1 [Ethacridine lactate, ethacridine lactate, reference compound]
Challenge: Please put the entries in order of rising MIC. Dear reader, please state the labels in the requested order.
Response given: II, III, I
(II: 31.2 µg/mL, III: 62.5 µg/mL, I: 250 µg/mL)
